Reported Relative Proliferation Fold Change 3F8 1:2 values are given for each entry in this list.
Biological target: T1, orthogonal hCD122 receptor (hoRb), hCD122 with H133D and Y134F (human, UniProt P14784 27-550); also: reference of the scale not given here
T1 sequence: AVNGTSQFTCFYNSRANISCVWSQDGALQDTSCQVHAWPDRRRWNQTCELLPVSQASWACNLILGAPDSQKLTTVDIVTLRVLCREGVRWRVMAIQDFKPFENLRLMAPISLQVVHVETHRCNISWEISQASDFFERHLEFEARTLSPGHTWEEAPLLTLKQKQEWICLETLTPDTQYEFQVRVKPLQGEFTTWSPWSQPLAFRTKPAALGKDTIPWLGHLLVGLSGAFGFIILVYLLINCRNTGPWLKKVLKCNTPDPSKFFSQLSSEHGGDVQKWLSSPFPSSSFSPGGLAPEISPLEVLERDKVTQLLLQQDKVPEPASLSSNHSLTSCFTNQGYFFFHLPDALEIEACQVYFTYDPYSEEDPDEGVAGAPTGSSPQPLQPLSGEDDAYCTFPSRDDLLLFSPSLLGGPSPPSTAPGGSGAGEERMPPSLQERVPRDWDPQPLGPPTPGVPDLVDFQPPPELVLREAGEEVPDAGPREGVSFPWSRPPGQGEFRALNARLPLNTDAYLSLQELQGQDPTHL
Assay: cell-based or functional assay
Number in fold, nothing else.

SQVLEA (ligand) APTSSSTKKTQLQLSQLLVLLEAILNGINNYKNPKLTRMLTFKFYMPKKATELKHLQCLEEELKPLEEVLNLAQSKNFHLRPRDLISNINVIVLELKGSETTFMCEYADETATIVEFLNRWITFCQSIISTLT	32.9
C125A, SQVLKA (ligand) APTSSSTKKTQLQLSQLLVLLKAILNGINNYKNPKLTRMLTFKFYMPKKATELKHLQCLEEELKPLEEVLNLAQSKNFHLRPRDLISNINVIVLELKGSETTFMCEYADETATIVEFLNRWITFAQSIISTLT	0.72
L18V, SQVLKA (ligand) APTSSSTKKTQLQLSQLVVLLKAILNGINNYKNPKLTRMLTFKFYMPKKATELKHLQCLEEELKPLEEVLNLAQSKNFHLRPRDLISNINVIVLELKGSETTFMCEYADETATIVEFLNRWITFCQSIISTLT	139
SQVLVA (ligand) APTSSSTKKTQLQLSQLLVLLVAILNGINNYKNPKLTRMLTFKFYMPKKATELKHLQCLEEELKPLEEVLNLAQSKNFHLRPRDLISNINVIVLELKGSETTFMCEYADETATIVEFLNRWITFCQSIISTLT	20.2
Q126D, SQVLKA (ligand) APTSSSTKKTQLQLSQLLVLLKAILNGINNYKNPKLTRMLTFKFYMPKKATELKHLQCLEEELKPLEEVLNLAQSKNFHLRPRDLISNINVIVLELKGSETTFMCEYADETATIVEFLNRWITFCDSIISTLT	0.63
M39L, SQVLKA (ligand) APTSSSTKKTQLQLSQLLVLLKAILNGINNYKNPKLTRLLTFKFYMPKKATELKHLQCLEEELKPLEEVLNLAQSKNFHLRPRDLISNINVIVLELKGSETTFMCEYADETATIVEFLNRWITFCQSIISTLT	179
SQVLYA, E116G (ligand) APTSSSTKKTQLQLSQLLVLLYAILNGINNYKNPKLTRMLTFKFYMPKKATELKHLQCLEEELKPLEEVLNLAQSKNFHLRPRDLISNINVIVLELKGSETTFMCEYADETATIVEFLNRWITFCQSIISTLT	29.7
L18I, SQVLKA (ligand) APTSSSTKKTQLQLSQLIVLLKAILNGINNYKNPKLTRMLTFKFYMPKKATELKHLQCLEEELKPLEEVLNLAQSKNFHLRPRDLISNINVIVLELKGSETTFMCEYADETATIVEFLNRWITFCQSIISTLT	81.2

// Relative Proliferation Fold Change 3F8 1:2 lookup, binder = R81Y, SQVLKA (ligand) APTSSSTKKTQLQLSQLLVLLKAILNGINNYKNPKLTRMLTFKFYMPKKATELKHLQCLEEELKPLEEVLNLAQSKNFHLYPRDLISNINVIVLELKGSETTFMCEYADETATIVEFLNRWITFCQSIISTLT , result: 4.14

Values were extracted from patent US20210196796A1.
